The reported measurements were obtained from ChEMBL document CHEMBL3853353.

assay: Cytotoxicity against human HepG2 cells assessed as reduction in cell viability after 40 hrs by Celltiter-Glo assay; details: HepG2 cells
// reported IC50 at 40 h for each item listed
Write down the numeric answer in µM and omit the unit.

COc1ccc(CCNc2nc3cc(Cl)ccc3c(=O)n2C)cc1 | 13.4
Cn1c(NCCc2ccc(-c3ccccc3)cc2)nc2cc(Cl)ccc2c1=O | 6.5
Cn1c(NCCc2ccc(-c3ccccc3)cn2)nc2cc(Cl)ccc2c1=O | 18.3
COc1ccc(-c2ccc(CCNc3nc4cc(Cl)ccc4c(=O)n3C)nc2)cn1 | 24.1
Cn1c(NCCc2ccc(-n3cc(Cl)cn3)cc2)nc2cc(Cl)ccc2c1=O | 21.6
COc1ccc(CCNc2nc3ccc(Cl)cc3c(=O)n2C)cc1 | 26.1

Sample COc1ccc(CCCNc2nc3cc(Cl)ccc3c(=O)n2C)cc1 — what was its IC50 at 40 h?
16.8

Please give the measured IC50 at 40 h for this compound: COc1ccc(-c2ccc(CCNc3nc4cc(Cl)ccc4c(=O)n3C)nc2)cc1
14.7

###

system: Mycobacterium tuberculosis; test: Antimycobacterial activity against Mycobacterium tuberculosis H37Rv incubated for 5 days in presence of 25% mouse serum by Bactiter-Glo assay; assay type: functional; conditions: 120 h
QUANTITY_NAME: MIC80 (µM)
Could you give me the number in µM? Just the number is fine.

COc1ccc(CCNc2nc3cc(Cl)ccc3c(=O)n2C)cc1 | 0.013
Cn1c(NCCc2ccc(Oc3ccc(Cl)cc3)cc2)nc2cc(Cl)ccc2c1=O | 0.42
Cn1c(NCCc2ccc(-c3ccc(F)cc3)cc2)nc2cc(Cl)ccc2c1=O | 0.034

Lab note: need MIC80 with Mycobacterium tuberculosis for entry Cn1c(NCCc2ccc(-c3ccc(F)cc3)cc2)nc2cc(N)ccc2c1=O , please look it up.
0.007

###

assay: Lipophilicity, log P of compound; conditions: octanol/water
QUANTITY_NAME: logP

What does the record list as logP for COc1ccc(CCNc2nc3cc(Cl)ccc3c(=O)n2C)cc1 ?
4.08

###

assay: Aqueous equilibrium solubility of compound in pH 1 solution at 20 degC; conditions: aqueous pH 1 solution
// reported log10(solubility thermodynamic) for each item listed
Record value = log10 of solubility thermodynamic given in µg/mL.

Example entries begin here.
COc1ccc(CCNc2nc3cc(Cl)ccc3c(=O)n2C)nc1 | 3.06
Cn1c(NCCc2ccc(-c3ncc(Cl)cn3)cc2)nc2cc(Cl)ccc2c1=O | 1.00
Cn1c(NCCc2ccc(OC(F)(F)F)cc2)nc2cc(Cl)ccc2c1=O | 1.63
COc1ccc(CCNc2nc3cc(OC)ccc3c(=O)n2C)cc1 | 2.87
COc1ccc(CCNc2nc3cc(C)ccc3c(=O)n2C)cc1 | 2.34
Cn1c(NCCc2ccc(-c3ccc(Cl)cn3)cc2)nc2cc(Cl)ccc2c1=O | 1.32
Cn1c(NCCc2ccccc2)nc2cc(Cl)ccc2c1=O | 2.26

Next:
Item Cn1c(NCCc2ccc(-c3ncc(F)cn3)cc2)nc2cc(Cl)ccc2c1=O has what recorded log10(solubility thermodynamic)?
1.04

###

experiment: Ratio of drug level in Mycobacterium tuberculosis H37Rv infected Balb/c mouse lung to plasma at 100 mg/kg, po administered through gavage as VitE/PEG200/HPC formulation; conditions: other tissue
QUANTITY_NAME: Kp

Which Kp is listed for Cn1c(NCCc2ccc(-c3ccc(F)cc3)cc2)nc2cc(N)ccc2c1=O ?
4.5

###

experiment: Protein binding in human plasma at 1 to 10 uM after 4 hrs by LC-MS/MS analysis; type: ADME, cell-free; details: read-out: PPB (converted)
Catalogue of fraction unbound at 4 h values

Some solved cases for reference:
Cn1c(NCCc2ccc(-c3ccc(F)cc3)cc2)nc2cc(Cl)ccc2c1=O | 0.001
Cn1c(NCCc2ccc(Oc3ccc(Cl)cc3)cc2)nc2cc(Cl)ccc2c1=O | 0.001

Fill blank: measured fraction unbound at 4 h of the compound Cn1c(NCCc2ccc(-c3ccc(F)cc3)cc2)nc2cc(N)ccc2c1=O is ____.
0.002

###

Quick reference for pIC50 among some compounds
target: Cytochrome P450 3A4 (Homo sapiens); experiment: Inhibition of CYP3A4 in human liver microsomes assessed as 1'-hydroxymidazolam metabolite formation using midazolam as substrate incubated for 10 mins by HPLC-MS method
Sequence (P08684 whole entry): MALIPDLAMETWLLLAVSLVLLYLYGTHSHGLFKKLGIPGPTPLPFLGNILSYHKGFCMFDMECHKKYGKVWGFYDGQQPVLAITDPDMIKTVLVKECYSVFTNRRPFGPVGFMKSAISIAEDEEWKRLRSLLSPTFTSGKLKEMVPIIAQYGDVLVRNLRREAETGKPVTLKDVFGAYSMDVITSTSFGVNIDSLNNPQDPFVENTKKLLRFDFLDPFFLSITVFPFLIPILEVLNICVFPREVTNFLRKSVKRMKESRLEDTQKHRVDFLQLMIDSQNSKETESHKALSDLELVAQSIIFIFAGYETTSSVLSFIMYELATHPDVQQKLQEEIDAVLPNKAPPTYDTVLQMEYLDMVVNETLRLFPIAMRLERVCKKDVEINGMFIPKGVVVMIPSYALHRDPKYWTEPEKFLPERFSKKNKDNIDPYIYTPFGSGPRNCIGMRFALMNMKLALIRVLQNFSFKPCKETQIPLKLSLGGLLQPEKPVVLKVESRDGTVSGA
pIC50: −log10 of the molar value.

Look over these answered cases.
Cn1c(NCCc2ccc(-c3ccc(F)cc3)cc2)nc2cc(Cl)ccc2c1=O | < 4.52
Cn1c(NCCc2ccc(-c3ccc(Cl)cn3)cc2)nc2cc(Cl)ccc2c1=O | < 4.52

Now consider a different compound.
Query (compound): Cn1c(NCCc2ccc(-c3ccccc3)cc2)nc2cc(Cl)ccc2c1=O ; field requested: pIC50
< 4.52

###

biological target: Cytochrome P450 3A4 (Homo sapiens); assay: Inhibition of CYP3A4 in human liver microsomes assessed as 1'-hydroxymidazolam metabolite formation using midazolam as substrate incubated for 10 mins by HPLC-MS method
Listing: IC50 of selected compounds

COc1ccc(CCNc2nc3cc(C)ccc3c(=O)n2C)cc1 | < 1000 nM
Cn1c(NCCc2ccc(-c3ncc(F)cn3)cc2)nc2cc(Cl)ccc2c1=O | > 30000 nM
COc1ccc(CCNc2nc3cc(Cl)ccc3c(=O)n2C)nc1 | < 1000 nM
COc1ccc(CCNc2nc3cc(OC)ccc3c(=O)n2C)cc1 | < 1000 nM

Please turn your attention to the following entry.
Would you mind telling me what IC50 value was observed for COc1ccc(CCNc2nc3cc(Cl)ccc3c(=O)n2C)cc1 ?
< 1000 nM

###

test: Cytotoxicity against human HepG2 cells assessed as reduction in cell viability after 40 hrs by Celltiter-Glo assay; details: HepG2 cells
Examples of molecules with documented IC50 at 40 h follow.
Express your answer in µM, writing the number without its unit.

Use the examples below as a reference point.
Cn1c(NCCc2ccccc2)nc2cc(Cl)ccc2c1=O | 15.2
CCn1c(NCCc2ccc(OC)cc2)nc2cc(Cl)ccc2c1=O | 21
Cn1c(NCCc2ccc(OC(F)(F)F)cc2)nc2cc(Cl)ccc2c1=O | 9.9
COc1ccc(NCc2nc3cc(Cl)ccc3c(=O)n2C)cc1 | 15.7
Cn1c(NCCc2ccc(-c3ccccc3)nn2)nc2cc(Cl)ccc2c1=O | 15.1

Data request, read-out IC50 at 40 h, for Cn1c(NCCc2ccc(Oc3ccccn3)cc2)nc2cc(Cl)ccc2c1=O
12.1

Could you tell me which IC50 at 40 h is on file for Cn1c(NCCc2ccc(-c3ccc(F)cc3)cn2)nc2cc(Cl)ccc2c1=O ?
0.057

Tell me the measured IC50 at 40 h of COc1ccc(-c2ccc(CCNc3nc4cc(Cl)ccc4c(=O)n3C)cc2)cn1 , please.
11.3

Please give the measured IC50 at 40 h for this molecule: Cn1c(NCCc2ccc(-c3ccc(F)cc3)cc2)nc2cc(Cl)ccc2c1=O
22

Quick one: IC50 at 40 h for COc1ccc(-c2ccc(CCNc3nc4cc(Cl)ccc4c(=O)n3C)cc2)nc1 ?
11.9

###

experiment: Lipophilicity, log P of compound; conditions: octanol/water
QUANTITY_NAME: logP
# answer = number (no unit)

COc1ccc(CCNc2nc3cc(N(C)C)ccc3c(=O)n2C)cc1 | 1.94
Cn1c(NCCc2ccc(-n3cc(Cl)cn3)cc2)nc2cc(Cl)ccc2c1=O | 4.67
Cn1c(NCCc2ccc(OC(F)(F)F)cc2)nc2cc(Cl)ccc2c1=O | 4.95

Attention now turns to another entry.
Would you kindly share the measured logP for Cn1c(NCCc2ccc(-c3ncc(Cl)cn3)cc2)nc2cc(Cl)ccc2c1=O ?
5.02

###

// reported solubility thermodynamic per item
test: Aqueous equilibrium solubility of compound in pH 1 solution at 20 degC; conditions: aqueous pH 1 solution

Check out these entries, answers already filled in.
Cn1c(NCCc2ccc(-n3cc(Cl)cn3)cc2)nc2cc(Cl)ccc2c1=O | < 1 µg/mL
Cn1c(NCCc2ccc(-c3ccc(F)cc3)cc2)nc2cc(Cl)ccc2c1=O | < 1 µg/mL

Report solubility thermodynamic for Cn1c(NCCc2ccc(Oc3ccc(Cl)cc3)cc2)nc2cc(Cl)ccc2c1=O please.
< 1 µg/mL

###

assay: Cytotoxicity against human HepG2 cells assessed as reduction in cell viability after 40 hrs by Celltiter-Glo assay; details: HepG2 cells
Catalogue of compounds with associated IC50 at 40 h

Study these solved cases before continuing.
Cn1c(NCCc2ccc(-c3ncc(Cl)cn3)cc2)nc2cc(Cl)ccc2c1=O | > 30 µM
COc1ccc(CCNc2nc3cc(Cl)c(F)cc3c(=O)n2C)cc1 | > 30 µM
COc1ccc(CCNc2nc3cc(C)ccc3c(=O)n2C)cc1 | > 30 µM

Moving on to the next compound.
Report IC50 at 40 h for Cn1c(NCCc2ccc(N3CCOCC3)cc2)nc2cc(Cl)ccc2c1=O please.
> 30 µM

###

experiment: Lipophilicity, log P of compound; settings: octanol/water
Decision: logP beneath 5 gives YES; logP meeting or exceeding 5 gives NO.

Cn1c(NCCc2ccc(-c3ccc(Cl)cc3)nn2)nc2cc(Cl)ccc2c1=O | YES
Cn1c(NCCc2ccc(-c3ccc(F)cc3)cc2)nc2cc(Cl)ccc2c1=O | NO
Cn1c(NCCc2ccc(-c3ccccc3)cc2)nc2cc(Cl)ccc2c1=O | NO

Now turn to the next compound.
Bench note: check whether COc1ccc(-c2ccc(CCNc3nc4cc(Cl)ccc4c(=O)n3C)nc2)cc1 shows logP below 5
YES
